I'd be grateful if you could share measured IC50 for these entries.
- Test system: SIRPα signalling induced by Raji cells
- Assay: Assay B: SIRPα signalling assay using Raji cells
- Assay type: cell-based, human
- Experimental context: Homo sapiens, compounds of the invention, Table 4, read-out: Inhibition of SIRα signalling induced by Raji cells: IC50
Give just the numeric value; nM need not be written.

Given Cn1cnnc1C1CCN(c2c(C#N)cccc2-c2cnc(F)c(F)c2)CC1 , report its IC50 on SIRPα signalling induced by Raji cells.
147

Retrieve IC50 on SIRPα signalling induced by Raji cells; query Cn1cnnc1C1(F)CCN(c2c(C#N)cccc2-c2cnc3nc(C(C)(C)C)[nH]c3c2)CC1
11

Determine reported IC50 for Cn1cnnc1C1CCN(c2c(C#N)cccc2-c2cncc3cnn(Cc4ccccc4)c23)CC1 ; test system: SIRPα signalling induced by Raji cells.
40

Lab note: record IC50 of COc1cc(-c2cccc(C#N)c2N2CCC(c3nncn3C)CC2)cnc1F tested on SIRPα signalling induced by Raji cells.
63

Tell me IC50 of Cn1cnnc1C1CCN(c2c(C#N)cccc2-c2cnc(F)c(Oc3ccccc3)c2)CC1 when tested on SIRPα signalling induced by Raji cells.
372

Given Cn1cnnc1C1CCN(c2c(C#N)cccc2-c2cncc(C(N)=O)c2)CC1 , report its IC50 on SIRPα signalling induced by Raji cells.
761

Find the measured IC50 of Cn1cnnc1C1CCN(c2c(C#N)cccc2-c2cncc(-n3cccn3)c2)CC1 [compound 6, reference compound] with SIRPα signalling induced by Raji cells as test system.
220

Quote SIRPα signalling induced by Raji cells IC50 for entry Cn1cnnc1C1CCN(c2c(C#N)cccc2-c2cnc(F)c(Cl)c2)CC1 .
105
